# tgt: Recombinant human PI3Kγ (full length human PI3K p110γ) (Homo sapiens, UniProt P48736)
# Construct: full length human PI3K p110γ fused with a His6-tag at the C-terminus; His6 (C); purchased ALEXIS BIOCHEMICALS #201-055-C010; host or cells: S. frugiperda 9 insect cells
# Sequence (P48736 whole entry, the tested form may be a part): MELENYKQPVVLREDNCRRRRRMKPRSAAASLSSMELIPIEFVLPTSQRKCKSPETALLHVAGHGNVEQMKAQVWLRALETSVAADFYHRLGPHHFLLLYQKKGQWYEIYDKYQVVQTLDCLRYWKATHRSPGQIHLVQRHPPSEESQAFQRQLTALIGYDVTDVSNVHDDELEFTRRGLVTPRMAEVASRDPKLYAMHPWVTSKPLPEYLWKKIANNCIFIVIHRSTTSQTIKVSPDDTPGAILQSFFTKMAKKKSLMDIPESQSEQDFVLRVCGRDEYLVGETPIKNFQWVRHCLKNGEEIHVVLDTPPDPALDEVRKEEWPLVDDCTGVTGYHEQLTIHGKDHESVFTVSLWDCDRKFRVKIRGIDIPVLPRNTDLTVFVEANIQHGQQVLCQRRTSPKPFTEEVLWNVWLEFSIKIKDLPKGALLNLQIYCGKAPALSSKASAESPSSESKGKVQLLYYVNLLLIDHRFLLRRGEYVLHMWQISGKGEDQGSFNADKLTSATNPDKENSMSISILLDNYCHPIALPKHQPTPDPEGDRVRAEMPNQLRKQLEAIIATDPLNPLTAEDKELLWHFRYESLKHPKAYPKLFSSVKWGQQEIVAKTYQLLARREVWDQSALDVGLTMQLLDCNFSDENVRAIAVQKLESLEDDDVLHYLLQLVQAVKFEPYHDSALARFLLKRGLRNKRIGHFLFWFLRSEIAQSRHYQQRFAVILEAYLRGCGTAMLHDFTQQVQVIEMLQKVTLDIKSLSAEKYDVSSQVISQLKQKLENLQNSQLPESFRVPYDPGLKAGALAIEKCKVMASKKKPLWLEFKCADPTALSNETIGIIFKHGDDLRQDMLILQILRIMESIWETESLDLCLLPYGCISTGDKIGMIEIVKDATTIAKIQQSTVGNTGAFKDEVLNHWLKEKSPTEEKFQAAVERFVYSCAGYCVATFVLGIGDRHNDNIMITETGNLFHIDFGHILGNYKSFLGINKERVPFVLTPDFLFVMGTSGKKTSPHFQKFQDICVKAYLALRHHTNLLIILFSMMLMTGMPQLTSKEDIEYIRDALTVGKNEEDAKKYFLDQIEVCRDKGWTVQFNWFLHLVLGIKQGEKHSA
# test: Kinase assay of PI3Kγ (solid-phase lipid kinase assay)
# Assay type: biochemical
# test_conditions: Table 1, isozyme not given; read-out: in vitro
quantity_measured: IC50

• O/C(=C\C1=Nc2c(CN3CCOCC3)cccc2C2=NCCN12)c1cccnc1 = 100 to 500 nM
• COc1c(OC(C)C)ccc2c1N=C(/C=C(\O)c1cccnc1)N1CCN=C21 = < 100 nM

INPUT: Look up and report measured IC50 for this entry: CNC(=O)COc1ccc2c(c1OC)N=C(/C=C(\O)c1cccnc1)N1CCN=C21.Cl
OUTPUT: < 100 nM

INPUT: Report IC50 for COc1c(OCC#N)ccc2c1N=C(/C=C(\O)c1cccnc1)N1CCN=C21
OUTPUT: < 100 nM

INPUT: Let me know recorded IC50 for COc1c(OCC(=O)N(C)C)ccc2c1N=C(/C=C(\O)c1cccnc1)N1CCN=C21 , thanks.
OUTPUT: < 100 nM

INPUT: Consider the molecule O/C(=C\C1=Nc2c(cccc2C(F)(F)F)C2=NCCN12)c1cccnc1 . State its measured IC50.
OUTPUT: 100 to 500 nM

INPUT: Tell me IC50 reported for O/C(=C\C1=Nc2ccccc2C2=NCCN12)c1ccccc1O
OUTPUT: > 2000 nM

====

# tgt: Recombinant human PI3Kγ (full length human PI3K p110γ) (Homo sapiens, UniProt P48736)
# Construct: full length human PI3K p110γ fused with a His6-tag at the C-terminus; His6 (C); purchased ALEXIS BIOCHEMICALS #201-055-C010; host or cells: S. frugiperda 9 insect cells
# test: Kinase assay of PI3Kγ (solid-phase lipid kinase assay)
# Assay type: biochemical
# test_conditions: Table 1, isozyme not given; read-out: in vitro
# Description: [Determination of IC50 Values of Compounds in Kinase Assay of PI3Kγ] Chemicals and Assay Materials LABORATORIES (Toronto, Canada). […] The plates were subsequently air-dried by incubation for at least 2 hours in a fume hood. […] MicroScint PS™ (PACKARD) scintillation mix was added at 100 μl/well, and radioactivity was counted by using a TopCount™ (PACKARD) scintillation counter. […]
pIC50: −log10 of the molar value.
# pIC50 per record follows

As a guide, the following entries are already answered.
* Cl.O/C(=C\C1=Nc2ccccc2C2=NCCN12)c1ccc2[nH]cnc2c1 | 6.30 to 7.00
* CNc1ccc(/C(O)=C/C2=Nc3cc(OC)c(OC)cc3C3=NCCN23)cn1 | 6.30 to 7.00
* COc1c(OCC2CCCCO2)ccc2c1N=C(/C=C(\O)c1cccnc1)N1CCN=C21 (centres unmarked) | > 7.00
* COc1ccc2c(c1OC)N=C(/C=C(\O)c1cccnc1)N1CCN=C21 | > 7.00

INPUT: Name the recorded pIC50 of the item COc1ccc2c(c1OCC(=O)O)N=C(/C=C(\O)c1cccnc1)N1CCN=C21.Cl in your answer.
OUTPUT: 6.30 to 7.00

INPUT: Using known records, supply pIC50 for Cl.O=C(O)CCCCc1ccc2c(n1)N=C(/C=C(\O)c1cccnc1)N1CCN=C21
OUTPUT: > 7.00

INPUT: Give reported pIC50 value for O=[N+]([O-])c1ccc2c(c1)C1=NCCN1C(/C=C(\O)c1ccccc1)=N2
OUTPUT: < 5.70

====

# tgt: Recombinant human PI3Kγ (full length human PI3K p110γ) (Homo sapiens)
# Construct: full length human PI3K p110γ fused with a His6-tag at the C-terminus; His6 (C); purchased ALEXIS BIOCHEMICALS #201-055-C010; host or cells: S. frugiperda 9 insect cells
# test: Kinase assay of PI3Kγ (solid-phase lipid kinase assay)
# Type: biochemical
# test_conditions: in vitro PI3K-γ inhibitory activity, class symbols; read-out: in vitro PI3K-gamma
quantity_measured: IC50

Worked cases, answers included:
* Cc1ncccc1C(=O)NC1=Nc2cc(Br)ccc2C2=NCCN12.Cl | 100 to 500 nM
* Cl.O=C(NC1=Nc2ccc(F)cc2C2=NCCN12)c1ccc2[nH]cnc2c1 | 100 to 500 nM
* Cl.O=C(NC1=Nc2cc(Br)ccc2C2=NCCN12)c1ccc2[nH]cnc2c1 | < 100 nM

INPUT: Output IC50 of Cc1cc(C(=O)NC2=Nc3ccccc3C3=NCCN23)cnc1N
OUTPUT: 100 to 500 nM

INPUT: Identify measured IC50 associated with Nc1cncc(C(=O)NC2=Nc3ccccc3C3=NCCN23)c1
OUTPUT: < 100 nM

INPUT: Could you please provide reported IC50 for Cl.O=C(NC1=Nc2ccc(-c3ccco3)cc2C2=NCCN12)c1cccnc1 ? Thanks!
OUTPUT: 100 to 500 nM

====

Catalogue of molecules with associated melting point

- CC(=O)NC1=Nc2ccccc2C2=NCCN12: 189 °C
- Cc1nc2ncccc2cc1C(=O)NC1=Nc2ccccc2C2=NCCN12: 296 °C (dec.)
- COc1cc2c(cc1Br)C1=NCCN1C(NC(=O)c1cccnc1)=N2.Cl: 289 °C (dec.)
- Cl.O=C(NC1=Nc2ccc(O)cc2C2=NCCN12)c1cccnc1: > 300 °C
- Cl.O/C(=C\C1=Nc2ccccc2C2=NCCN12)c1ccno1: 245 °C (dec.)

INPUT: Determine its reported melting point: Cl.O/C(=C\C1=Nc2c(OCC3CC3)cccc2C2=NCCN12)c1cccnc1
OUTPUT: > 300 °C

INPUT: For the molecule CN1CCN(c2ccc3c(c2)N=C(/C=C(\O)c2ccc4[nH]cnc4c2)N2CCN=C32)CC1 , give its reported melting point.
OUTPUT: 207 °C

INPUT: Kindly indicate its recorded melting point. Item: COc1c(OCC(N)=O)ccc2c1N=C(/C=C(\O)c1cccnc1)N1CCN=C21.Cl
OUTPUT: 235 °C (dec.)

INPUT: Give the reported value of melting point for this record: Cl.NS(=O)(=O)c1ccc(C(=O)NC2=Nc3ccccc3C3=NCCN23)c(Cl)c1
OUTPUT: 300 °C (dec.)

====

Parameter melting point: see the listing below.

Example entries and their recorded answers appear below.
- O=C(NC1=Nc2cc(Br)ccc2C2=NCCN12)c1ccc2[nH]cnc2c1: 262 °C
- O=C(NC1=Nc2ccccc2C2=NCCN12)c1csc(-c2cccnc2)n1: 260 to 261 °C

INPUT: Specify reported melting point for the molecule shown: COc1ccc(C(=O)NC2=Nc3ccccc3C3=NCCN23)c(OC)c1.Cl
OUTPUT: 259 °C (dec.)

INPUT: Name the recorded melting point of the molecule listed here: CC(=O)Nc1ccc(/C(O)=C/C2=Nc3ccccc3C3=NCCN23)cn1.Cl
OUTPUT: 327 °C

INPUT: Supply recorded melting point for CC(C)(C)OC(=O)N1CCCC(C(=O)NC2=Nc3ccccc3C3=NCCN23)C1 (centres unmarked) here.
OUTPUT: 147 to 148 °C

INPUT: Find the measured melting point of COc1cccc2c1N=C(NC(=O)c1cc3cccnc3nc1C(F)(F)F)N1CCN=C21 and report it.
OUTPUT: 214 °C (dec.)

INPUT: Read the entry Cc1nc2cc(C(=O)NC3=Nc4ccccc4C4=NCCN34)ccc2[nH]1.Cl and write its reported melting point.
OUTPUT: 344 °C (dec.)

INPUT: Supply melting point value. Item: O/C(=C\C1=Nc2ccccc2C2=NCCN12)c1cccnc1
OUTPUT: 202 °C

====

# key: entry, value: pIC50
# tgt: Recombinant human PI3Kγ (full length human PI3K p110γ) (Homo sapiens, UniProt P48736)
# Construct: full length human PI3K p110γ fused with a His6-tag at the C-terminus; His6 (C); purchased ALEXIS BIOCHEMICALS #201-055-C010; host or cells: S. frugiperda 9 insect cells
# test: Kinase assay of PI3Kγ (solid-phase lipid kinase assay)
# Assay type: biochemical
# test_conditions: Table 1, isozyme not given; read-out: in vitro
pIC50: −log10 of the molar value.

Examples with answers:
- COc1cc2c(cc1OC)C1=NCCN1C(/C=C(\O)c1ccc(NCCO)nc1)=N2: 6.30 to 7.00
- Cl.O/C(=C\C1=Nc2c(F)cccc2C2=NCCN12)c1cccnc1 [Example 1-70]: > 7.00
- Cl.O/C(=C\C1=Nc2ccc(Br)cc2C2=NCCN12)c1cccnc1: 6.30 to 7.00
- O/C(=C\C1=Nc2c(OCC3CC3)cccc2C2=NCCN12)c1cccnc1: 6.30 to 7.00
- CC(=O)Nc1ccc(/C(O)=C/C2=Nc3c(C)cccc3C3=NCCN23)cn1: > 7.00

INPUT: Specify pIC50 for COc1ccc2c(c1)C1=NCCN1C(/C=C(\O)c1cccnc1)=N2 and stop.
OUTPUT: 6.30 to 7.00

INPUT: Complete the entry with pIC50 for COc1ccc2c(c1OC)N=C(/C=C(\O)c1ccc(NC(C)=O)nc1)N1CCN=C21
OUTPUT: > 7.00

INPUT: // fetch pIC50 given entry CC(=O)Nc1ccc(/C(O)=C/C2=Nc3cc(N4CCOCC4)ccc3C3=NCCN23)cn1
OUTPUT: > 7.00
